- SYSTEM_NAME: TRPV1 channel (Rattus norvegicus)
- Construct: expressed in transfected cells; host or cells: Xenopus laevis oocytes injected with in vitro transcribed TRPV1 cRNA
- Sequence (O35433 whole entry): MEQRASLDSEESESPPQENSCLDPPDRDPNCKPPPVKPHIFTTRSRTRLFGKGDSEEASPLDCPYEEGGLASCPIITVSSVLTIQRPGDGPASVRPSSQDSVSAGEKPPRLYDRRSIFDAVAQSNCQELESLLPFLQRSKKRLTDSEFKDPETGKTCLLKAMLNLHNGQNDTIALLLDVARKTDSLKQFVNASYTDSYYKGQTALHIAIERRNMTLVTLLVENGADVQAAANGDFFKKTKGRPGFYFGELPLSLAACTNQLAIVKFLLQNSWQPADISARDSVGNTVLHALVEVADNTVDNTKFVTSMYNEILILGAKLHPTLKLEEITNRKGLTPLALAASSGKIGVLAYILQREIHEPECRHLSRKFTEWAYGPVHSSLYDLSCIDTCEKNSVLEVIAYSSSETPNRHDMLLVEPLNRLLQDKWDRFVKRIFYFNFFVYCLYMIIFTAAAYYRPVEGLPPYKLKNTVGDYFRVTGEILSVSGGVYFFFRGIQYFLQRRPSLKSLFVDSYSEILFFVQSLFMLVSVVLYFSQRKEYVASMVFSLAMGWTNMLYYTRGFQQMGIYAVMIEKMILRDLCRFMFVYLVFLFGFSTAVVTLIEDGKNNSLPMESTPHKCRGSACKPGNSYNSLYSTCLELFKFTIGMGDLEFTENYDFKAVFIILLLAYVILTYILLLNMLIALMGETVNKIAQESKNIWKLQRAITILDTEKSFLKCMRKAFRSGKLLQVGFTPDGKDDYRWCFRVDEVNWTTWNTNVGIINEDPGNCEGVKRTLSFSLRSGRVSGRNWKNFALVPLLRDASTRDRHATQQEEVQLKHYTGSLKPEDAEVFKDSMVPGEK
- ASSAY_NOTES: Two-electrode voltage clamp (TEVC) in Xenopus oocytes expressing TRPV1 channels
- Format: cell-based
- COND: Imax relative to current in saturating capsaicin
As shown below, each of these compounds has a reported maximal effect (Ix/Icapsaicin) value.
Kindly provide the number alone.

Name the reported maximal effect (Ix/Icapsaicin) value associated with the compound Cc1cccc(NC(=O)C2CCCN(C(=O)OCc3ccccc3)C2)c1 (stereo not shown) 0.73

Field entry: COc1cc(C2C(C(=O)OC3CCCC3)=C(C)NC3=C2C(=O)CC(c2ccc(OC)c(OC)c2)C3)ccc1O (stereo not shown) 0.8

Field entry: `COc1ccc(C(=O)NNC(=O)CSc2nnc(-c3ccc(C)cc3)n2C)cc1` 0.89

Field entry: COc1cc(CNC(=O)CCCC/C=C/C(C)C)ccc1O [Capsaicin, reference compound] 1
